All figures here come from patent US4443436A.

Overview of recorded MIC for various compounds
# Test system: Streptococcus Group 9960
# Assay procedure: MIC, standard agar-dilution assay, Streptococcus Group 9960
# Assay type: cell-based
# Conditions used: GROUP9960; Streptococcus Group 9960; agar dilution; read-out: MIC
Form entry: value (µg/mL) — number only.

CCC1OC(=O)CC(O)C(C)C(OC2OC(C)C(OC3CC(C)(O)C(O)C(C)O3)C(N(C)C)C2O)C(C)CC(C)C(=O)C=CC(C)=CC1COC1OC(C)C(O)C(O)C1OC (stereo not drawn)
28
CCC1OC(=O)CC(O)C(C)C(OC2OC(C)C(OC3CC(C)(O)C(O)C(C)O3)C(N(C)C)C2O)C(CCN=[N+]=[N-])CC(C)C(=O)C=CC(C)=CC1COC1OC(C)C(O)C(OC)C1OC (stereo not drawn)
128
CCC1OC(=O)CC(O)C(C)C(OC2OC(C)C(OC3CC(C)(O)C(O)C(C)O3)C(N(C)C)C2O)C(CCOc2ccc(OC)cc2)CC(C)C(=O)C=CC(C)=CC1COC1OC(C)C(O)C(OC)C1OC (stereo not drawn)
128

Look up MIC for this compound: CCC1OC(=O)CC(O)C(C)C(OC2OC(C)C(OC3CC(C)(O)C(O)C(C)O3)C(N(C)C)C2O)C(CCI)CC(C)C(=O)C=CC(C)=CC1COC1OC(C)C(O)C(O)C1OC (stereo not drawn) 128

Look up MIC for this compound: CCC1OC(=O)CC(O)C(C)C(OC2OC(C)C(O)C(N(C)C)C2O)C(CCCl)CC(C)C(=O)C=CC(C)=CC1COC1OC(C)C(O)C(OC)C1OC (stereo not drawn) 8

Look up MIC for this compound: CCC1OC(=O)CC(O)C(C)C(OC2OC(C)C(O)C(N(C)C)C2O)C(CCO[N+](=O)[O-])CC(C)C(=O)C=CC(C)=CC1COC1OC(C)C(O)C(OC)C1OC (stereo not drawn) 8

Look up MIC for this compound: CCC1OC(=O)CC(O)C(C)C(OC2OC(C)C(O)C(N(C)C)C2O)C(CCI)CC(C)C(=O)C=CC(C)=CC1COC1OC(C)C(O)C(O)C1OC (stereo not drawn) 16
